Data credit: patent US12384777B2

# assayed target: BRDT(1) (Homo sapiens (Human))
# protocol notes: Bromodomain binding assay, BRDT(1)
# experimental parameters: dose response
pKd: −log10 of the molar value.
readout type: pKd

{"compound": "CCNC(=O)c1cc2c(-c3ccn(C)c(=O)c3Oc3c(C)cc(F)cc3C)cn(C)c(=O)c2[nH]1 [Example 41]", "result": "< 5.52"}

---

solubility at 5 hr: recorded values
# protocol notes: Solubility in topical formulations
# Format: physicochemical
# experimental parameters: Labrasol, oil or lipid, thermodynamic from solid; 5 hr at 32° C.; read-out: Solubility in LB (Labrasol)
readout type: solubility at 5 hr

{"compound": "Cn1cc(-c2c(O)cccc2Oc2ccccc2)c2cc[nH]c2c1=O [Example 3]", "readout type": "solubility at 5 hr", "result": "> 10000 µg/mL"}
{"compound": "Cn1cc(-c2cccc(O)c2Oc2ccccc2)c2cc[nH]c2c1=O [Example 1]", "readout type": "solubility at 5 hr", "result": "1000 to 10000 µg/mL"}
{"compound": "Cn1cc(-c2cc(O)ccc2Oc2ccccc2)c2cc[nH]c2c1=O [Example 6]", "readout type": "solubility at 5 hr", "result": "> 10000 µg/mL"}
{"compound": "Cn1cc(-c2ccc(O)cc2Oc2ccccc2)c2cc[nH]c2c1=O [Example 2]", "readout type": "solubility at 5 hr", "result": "1000 to 10000 µg/mL"}
